Every entry's value here was drawn from PubChem BioAssay AID624255.

Below, each entry is listed alongside its reported inhibition.
assay: T. cruzi intracellular proliferation inhibitors, primary screen, cell-based, beta-gal Tulahuen parasites, NIH3T3 host, luminescence (AID 624255); details: T. cruzi beta-gal in NIH3T3, GalScreen luminescence, 90 h; at 8.34 µM; stronger effect = higher value
The campaign covered roughly 77,000 compounds. About 4,600 (6%) were called active. Roughly 1% stayed inconclusive and do not appear here. Only a selection was taken, and actives are over-represented in it overall.
Reported endpoint: inhibition (%)

CCNC(=O)C[C@H]1CC[C@@H]2[C@H](COC[C@H](O)CN2S(=O)(=O)c2ccc(Oc3ccccc3)cc2)O1 | 2.89
C[C@@H]1CN([C@@H](C)CO)S(=O)(=O)c2ccc(-c3cccc(F)c3)cc2O[C@@H]1CN(C)S(=O)(=O)c1ccccc1 | 117
CC(C)NC(=O)N(C)C[C@@H]1OCCCC[C@@H](C)Oc2ccc(NC(=O)c3ccccc3)cc2C(=O)N([C@@H](C)CO)C[C@H]1C | 30.5
Cc1noc(C)c1NC(=O)N(C)C[C@@H]1OCCCC[C@H](C)Oc2ccc(NS(=O)(=O)c3c(C)noc3C)cc2C(=O)N([C@@H](C)CO)C[C@@H]1C | -9.2
COc1cccc(S(=O)(=O)N(C)C[C@H]2Oc3cc(C#CCN(C)C)ccc3S(=O)(=O)N([C@H](C)CO)C[C@H]2C)c1 | 75.2
CC(=O)N(C)C[C@@H]1Oc2cc(-c3cccc(F)c3)ccc2S(=O)(=O)N([C@H](C)CO)C[C@H]1C | 31.3
CN1C(=O)c2cc(NC(=O)Nc3ccccc3Cl)ccc2OC[C@H]2O[C@@H](CC(=O)O)CC[C@H]21 | 15.3
CCN1[C@@H]2c3ccc(C4=CCCC4)c(=O)n3C[C@@H]2[C@@H](CO)[C@@H]1C(=O)NCc1ccccn1 | 26.1
CCC(=O)N1C[C@H](C)[C@H](OC)CN(C)C(=O)c2ccc(NC(=O)Nc3ccccc3)cc2OC[C@H]1C | -75.2
C[C@@H]1CN([C@H](C)CO)S(=O)(=O)c2ccc(C3=CCCC3)cc2O[C@@H]1CN(C)C(=O)C1CCC1 | 52.9
C/C=C/c1ccc([C@@H]2[C@@H](CO)N(C(C)=O)[C@H]2CN(C)C(=O)CN(C)C)cc1 | -6.45
C[C@H](NC(=O)C[C@H]1CC[C@H]2[C@@H](COC[C@H](O)CN2C(=O)Nc2cc(Cl)cc(Cl)c2)O1)c1ccccc1 | 20.2
C[C@@H]1CN([C@@H](C)CO)S(=O)(=O)c2ccc(C#Cc3ccncc3)cc2O[C@@H]1CN(C)S(=O)(=O)c1ccccc1 | 11.5
C[C@H]1CN([C@@H](C)CO)S(=O)(=O)c2ccc(C#Cc3cccc(F)c3)cc2O[C@@H]1CN(C)S(=O)(=O)c1cn(C)cn1 | 102
CCC(=O)N(C)C[C@H]1Oc2cc(-c3ccccc3F)ccc2S(=O)(=O)N([C@H](C)CO)C[C@@H]1C | 81.3
